tested on: Botrytis cinerea; experiment: Inhibition of spore germination of Botrytis cinerea assessed as compound concentration causing 75 to 100% germination inhibition; assay type: functional
measuredProperty: INH

GET /value?item= CC1(C)CC2=C(C=O)[C@@]34C[C@]3(C[C@@H]2C1)C(=O)OC4O (some centres undefined) &field=INH returns 50 µg/mL

Noted for CCC(C)CCOC1OC(=O)[C@]23C[C@@H]4CC(C)(C)CC4=C(C=O)[C@]12C3 (mixture of isomers) [UDALACTARANE A] : its INH reads >100 µg/mL

The compound Cc1cc(C2CCCCC2)n(O)c(=O)c1 [CICLOPIROX] showed INH equal to 50 µg/mL

Notebook: CC1=C2C[C@@](C)(COC3OC(=O)[C@]45C[C@@H]6CC(C)(C)CC6=C(C=O)[C@]34C5)C[C@H]2C[C@]2(C)CC[C@]12O (mixture of isomers) [UDALACTARANE B] , INH read as >100 µg/mL
